target under test: Aβ (1-42) (Homo sapiens)
Construct: Required Aβ (1-42) (California Peptide) was dried from its hexafluoroisopropanol (HFIP) stock solution; purchased California Peptide
Sequence (P05067 672-713 limits assumed): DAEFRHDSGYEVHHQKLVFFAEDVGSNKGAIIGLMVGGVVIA
test: BATYM assay (Aβ (1-42) aggregation, Thioflavin T fluorescence)
Assay type: biochemical
experimental parameters: Aβ 1-42 final concentration 100 μM, 37° C., 1 day, letter = synthetic lot
# IC50 per entry
quantity name: IC50 (µM)

1. CS(=O)(=O)NC(=O)c1ccccc1Nc1ccc(CCCc2ccc(Cl)c(Cl)c2)cc1 [Example 60] | 40.7
2. O=C(O)c1ccccc1Nc1cccc(CCCc2ccc(Cl)c(Cl)c2)c1 [Example 155] | 44.6
3. O=C(O)c1ccccc1Nc1cccc(CCc2ccc(Cl)cc2)c1 [Example 154] | 70.8
4. O=C(O)c1cc([N+](=O)[O-])ccc1Nc1ccc(CCc2ccc(-c3ccccc3)cc2)cc1 [Example 62] | 8.98
5. O=C(O)c1ccccc1Nc1ccc(CCCc2ccc(-n3cccc3)cc2)cc1 [Example 46] | 34.3
6. O=C(O)c1ccccc1Nc1ccc(CCCCc2ccc(Cl)c(Cl)c2)cc1 [Example 10] | 75.7
7. O=C(O)c1ccccc1Nc1ccc(CCc2ccc(Oc3ccccc3)cc2)cc1 [Example 134] | 36.5
8. Cc1ccc(CCc2ccc(Nc3ccc([N+](=O)[O-])cc3C(=O)O)cc2)cc1C [Example 61] | 12
9. Cc1ccc(CCc2cccc(Nc3ccccc3C(=O)O)c2)cc1C [Example 124] | 62.7
10. O=C(O)c1cc([N+](=O)[O-])ccc1Nc1ccc(CCc2ccccc2)cc1 [Example 65] | 15.9
11. COc1cc(Nc2ccc(CCCc3ccc(Cl)c(Cl)c3)cc2)c(C(=O)O)cc1[N+](=O)[O-] [Example 7] | 8.83
12. O=C(O)c1cc([N+](=O)[O-])ccc1Nc1ccc(CCc2ccc(F)c(F)c2)cc1 [Example 67] | 13.3
13. CCCCN(CCCC)c1cccc(CCc2ccc(Nc3ccccc3C(=O)O)cc2)c1.Cl [Example 38, monohydrochloride] | 23.4
14. O=C(O)c1ccccc1Nc1ccc(CCc2cccc(N(Cc3ccccc3)Cc3ccccc3)c2)cc1 [Example 31] | 22.6
